- Test system: E. faecalis
- experimentDescription: MIC assay, E. faecalis
- Assay type: cell-based, Enterococcus faecalis
observable: MIC (μg/mL) E. faecalis (µg/mL)
# number only, unit µg/mL dropped from output

# compound, number
records = [
    ("CO[C@H]1/C=C/O[C@@]2(C)Oc3c(C)c(O)c4c(=O)c(c5oc6cc(N7CCC(NS(C)(=O)=O)CC7)cc(O)c6nc-5c4c3C2=O)NC(=O)/C(C)=C\\C=C\\[C@H](C)[C@H](O)[C@@H](C)[C@@H](O)[C@@H](C)[C@H](O)[C@@H]1C", 1),
    ("COc1c(N2CCCC2)cc(C)c2nc3c4c5c6c(C)c(O)c4c(=O)c(c-3oc12)NC(=O)C(C)=CC=CC(C)C(O)C(C)C(O)C(C)C(O)C(C)C(OC)C=COC(C)(O6)C5=O (centres unmarked)", 2),
]

MIC (μg/mL) E. faecalis recorded for this compound, `CCCNC(=O)NC1CCN(c2cc(O)c3nc4c5c6c7c(C)c(O)c5c(=O)c(c-4oc3c2)NC(=O)/C(C)=C\C=C\[C@H](C)[C@H](O)[C@@H](C)[C@@H](O)[C@@H](C)[C@H](OC(C)=O)[C@H](C)[C@@H](OC)/C=C/O[C@@](C)(O7)C6=O)CC1` , is 1

* * *

- Test system: H. flu
- Assay type: cell-based, H. influenza
- conditionDescription: H. flu
Catalogue of MIC (μg/mL) H. flu values
# number only, unit µg/mL dropped from output

# compound, unitName, MIC (μg/mL) H. flu
records = [
    ("COC1C=COC2(C)Oc3c(C)c(O)c4c(=O)c(c5sc6cc(N7CC(C)NC(C)C7)ccc6nc-5c4c3C2=O)NC(=O)C(C)=CC=CC(C)C(O)C(C)C(O)C(C)C(O)C1C (centres unmarked)", "µg/mL", 0.12),
]

Turning to the following compound.
Entry `CCOC(=O)NC1CCN(c2cc(O)c3nc4c5c6c7c(C)c(O)c5c(=O)c(c-4oc3c2)NC(=O)/C(C)=C\C=C\[C@H](C)[C@H](O)[C@@H](C)[C@@H](O)[C@@H](C)[C@H](O)[C@H](C)[C@@H](OC)/C=C/O[C@@](C)(O7)C6=O)CC1` , tested on H. flu, has a reported MIC (μg/mL) H. flu of 0.25

* * *

- Tested on: H. flu
- Assay type: cell-based, H. influenza
- conditionDescription: H. flu
Mark Criterion met for MIC (μg/mL) H. flu under 0.2 µg/mL, Criterion not met if at or over.

See these solved cases before continuing.
# compound, assayedTarget, assignedClass
data = [
    ("CCOc1c(N2CCN(CC)CC2)ccc2nc3c4c5c6c(C)c(O)c4c(=O)c(c-3oc12)NC(=O)C(C)=CC=CC(C)C(O)C(C)C(O)C(C)C(O)C(C)C(OC)C=COC(C)(O6)C5=O (stereo not drawn) [Compound 91]", "H. flu", "Criterion not met"),
    ("COC1C=COC2(C)Oc3c(C)c(O)c4c(=O)c(c5oc6cc(N7CCC(NC(C)=O)CC7)cc(O)c6nc-5c4c3C2=O)NC(=O)C(C)=CC=CC(C)C(O)C(C)C(O)C(C)C(OC(C)=O)C1C (stereo not drawn) [Compound 44]", "H. flu", "Criterion not met"),
    ("COC1C=COC2(C)Oc3c(C)c(O)c4c(=O)c(c5oc6cc(N7CCN(CCO)CC7)cc(O)c6nc-5c4c3C2=O)NC(=O)C(C)=CC=CC(C)C(O)C(C)C(O)C(C)C(O)C1C (stereo not drawn) [Compound 98]", "H. flu", "Criterion not met"),
    ("CO[C@H]1/C=C/O[C@@]2(C)Oc3c(C)c(O)c4c(=O)c(c5oc6cc(N7CCC(NS(C)(=O)=O)CC7)cc(O)c6nc-5c4c3C2=O)NC(=O)/C(C)=C\\C=C\\[C@H](C)[C@H](O)[C@@H](C)[C@@H](O)[C@@H](C)[C@H](O)[C@@H]1C [Compound 27]", "H. flu", "Criterion met"),
]

Query block: In the record for COC1C=COC2(C)Oc3c(C)c(O)c4c(=O)c(c5sc6cc(N7CC(C)N(CC8CC8)CC7C)ccc6nc-5c4c3C2=O)NC(=O)C(C)=CC=CC(C)C(O)C(C)C(O)C(C)C(OC(C)=O)C1C (stereo not drawn) [Compound 68] , is MIC (μg/mL) H. flu less than 0.2 µg/mL?
Result block: Criterion not met

Query block: In the record for COC1C=COC2(C)Oc3c(C)c(O)c4c(=O)c(c5oc6cc(N7CC8C(C7)C8N(C)C)cc(O)c6nc-5c4c3C2=O)NC(=O)C(C)=CC=CC(C)C(O)C(C)C(O)C(C)C(O)C1C (stereo not drawn) [Compound 54] , is MIC (μg/mL) H. flu less than 0.2 µg/mL?
Result block: Criterion not met

Query block: In the record for COC1C=COC2(C)Oc3c(C)c(O)c4c(=O)c(c5oc6cc(N7CCN(Cc8ccccc8)CC7)cc(O)c6nc-5c4c3C2=O)NC(=O)C(C)=CC=CC(C)C(O)C(C)C(O)C(C)C(O)C1C (stereo not drawn) [Compound 86] , is MIC (μg/mL) H. flu less than 0.2 µg/mL?
Result block: Criterion not met

Query block: In the record for COC1C=COC2(C)Oc3c(C)c(O)c4c(=O)c(c5oc6cc(N7CCC(NC(=O)OC(C)(C)C)CC7)cc(O)c6nc-5c4c3C2=O)NC(=O)C(C)=CC=CC(C)C(O)C(C)C(O)C(C)C(O)C1C (stereo not drawn) [Compound 52] , is MIC (μg/mL) H. flu less than 0.2 µg/mL?
Result block: Criterion met

Query block: In the record for CCCC(=O)NC1CCN(c2cc(O)c3nc4c5c6c7c(C)c(O)c5c(=O)c(c-4oc3c2)NC(=O)/C(C)=C\C=C\[C@H](C)[C@H](O)[C@@H](C)[C@@H](O)[C@@H](C)[C@H](OC(C)=O)[C@H](C)[C@@H](OC)/C=C/O[C@@](C)(O7)C6=O)CC1 [Compound 24] , is MIC (μg/mL) H. flu less than 0.2 µg/mL?
Result block: Criterion not met

* * *

- Test system: E. faecalis
- experimentDescription: MIC assay, E. faecalis
- Type: cell-based, Enterococcus faecalis
Mark 1.0 for MIC (μg/mL) E. faecalis under 0.2 µg/mL, 0.0 if at or over.

See these solved cases before continuing.
# compound, assignedClass
measured = [
    ("COC1C=COC2(C)Oc3c(C)c(O)c4c(=O)c(c5sc6cc(N7CCN(C)CC7)ccc6nc-5c4c3C2=O)NC(=O)C(C)=CC=CC(C)C(O)C(C)C(O)C(C)C(O)C1C (stereo not drawn)", 1.0),
    ("COC1C=COC2(C)Oc3c(C)c(O)c4c(=O)c(c5oc6cc(N7CCC(c8ccccc8)CC7)cc(O)c6nc-5c4c3C2=O)NC(=O)C(C)=CC=CC(C)C(O)C(C)C(O)C(C)C(OC(C)=O)C1C (stereo not drawn)", 0.0),
    ("CCCC(=O)NC1CCN(c2cc(O)c3nc4c5c6c7c(C)c(O)c5c(=O)c(c-4oc3c2)NC(=O)/C(C)=C\\C=C\\[C@H](C)[C@H](O)[C@@H](C)[C@@H](O)[C@@H](C)[C@H](OC(C)=O)[C@H](C)[C@@H](OC)/C=C/O[C@@](C)(O7)C6=O)CC1", 0.0),
]

Query block: In the record for COC1C=COC2(C)Oc3c(C)c(O)c4c(=O)c(c5oc6cc(N7CCC(C)(N(C)C)CC7)cc(O)c6nc-5c4c3C2=O)NC(=O)C(C)=CC=CC(C)C(O)C(C)C(O)C(C)C(OC(C)=O)C1C (stereo not drawn) , is MIC (μg/mL) E. faecalis less than 0.2 µg/mL?
Result block: 0.0

Query block: In the record for COC1C=COC2(C)Oc3c(C)c(O)c4c(=O)c(c5oc6cc(N7CCCC7)c(F)cc6nc-5c4c3C2=O)NC(=O)C(C)=CC=CC(C)C(O)C(C)C(O)C(C)C(O)C1C (stereo not drawn) , is MIC (μg/mL) E. faecalis less than 0.2 µg/mL?
Result block: 0.0

Query block: In the record for CCCS(=O)(=O)NC1CCN(c2cc(O)c3nc4c5c6c7c(C)c(O)c5c(=O)c(c-4oc3c2)NC(=O)C(C)=CC=CC(C)C(O)C(C)C(O)C(C)C(O)C(C)C(OC)C=COC(C)(O7)C6=O)CC1 (stereo not drawn) , is MIC (μg/mL) E. faecalis less than 0.2 µg/mL?
Result block: 0.0

Query block: In the record for COC1C=COC2(C)Oc3c(C)c(O)c4c(=O)c(c5sc6cc(N7CCN8CCCC8C7)ccc6nc-5c4c3C2=O)NC(=O)C(C)=CC=CC(C)C(O)C(C)C(O)C(C)C(O)C1C (stereo not drawn) , is MIC (μg/mL) E. faecalis less than 0.2 µg/mL?
Result block: 0.0

Query block: In the record for COC1C=COC2(C)Oc3c(C)c(O)c4c(=O)c(c5oc6cc(N7CCN(c8ccccc8)CC7)cc(O)c6nc-5c4c3C2=O)NC(=O)C(C)=CC=CC(C)C(O)C(C)C(O)C(C)C(O)C1C (stereo not drawn) , is MIC (μg/mL) E. faecalis less than 0.2 µg/mL?
Result block: 1.0

Query block: In the record for `CO[C@H]1/C=C/O[C@@]2(C)Oc3c(C)c(O)c4c(=O)c(c5oc6cccc(O)c6nc-5c4c3C2=O)NC(=O)/C(C)=C\C=C\[C@H](C)[C@H](O)[C@@H](C)[C@@H](O)[C@@H](C)[C@H](O)[C@@H]1C` , is MIC (μg/mL) E. faecalis less than 0.2 µg/mL?
Result block: 1.0
